- experimentalDetails: Cmax in rat at 5 mg/kg, po
- Assay type: ADME, organism-based
- Set-up: dose 5 mg/kg, route oral
- protocolConditions: in vivo
observedProperty: Cmax
Answers without a unit are incomplete; give the number and then its unit.

### Prompt Which measured Cmax value corresponds to N#Cc1cccc(-c2c[nH]c3ncnc(N4CCOCC4)c23)c1 ?
### Response 181 ng/mL

----------
- experimentalDetails: Half life in dog at 5 mg/kg, po
- Type: ADME, organism-based, Canis lupus familiaris
- Set-up: dose 5 mg/kg, route oral
- protocolConditions: in vivo
observedProperty: half-life (min)
Write the answer as a number in min, unit excluded.

### Prompt Which measured half-life value corresponds to N#Cc1cccc(-c2c[nH]c3ncnc(N4CCOCC4)c23)c1 ?
### Response 46.8
